MEASURED_TARGET: chymotrypsin-like activity of the 26S proteasome (Homo sapiens, UniProt P28074)
Construct: endogenous in cells; host or cells: Jurkat (ATCC TIB-152, E6-1 clone) cell lysate
Sequence (P28074 60-263): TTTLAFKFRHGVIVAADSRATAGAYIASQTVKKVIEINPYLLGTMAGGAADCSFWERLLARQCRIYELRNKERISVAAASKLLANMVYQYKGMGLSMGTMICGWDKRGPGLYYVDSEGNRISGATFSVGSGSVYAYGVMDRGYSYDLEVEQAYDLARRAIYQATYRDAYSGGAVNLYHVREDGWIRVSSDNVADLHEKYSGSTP
PROTOCOL_TEXT: Proteasome assay, chymotrypsin-like (ChT-L) activity, Suc-LLVY-AMC, Jurkat cell lysate
Format: biochemical
CONDITION_NOTES: Table 3, P2/P3 analogues; ± S.D.; read-out: Proteasome Inhibition ChT-like IC50
PROPERTY_MEASURED: IC50 (nM)
API: value field is a number in nM; no unit string.

Some compounds with recorded IC50:
- COMPOUND: "CC[C@H](C)[C@@H]1C(=O)O[C@H]1C(=O)N[C@H](C(=O)N[C@H](C(=O)OCc1ccccc1)C(C)(C)C)C(C)C [Compound 10f]"
  MEASURED_TARGET: "chymotrypsin-like activity of the 26S proteasome (Homo sapiens, UniProt P28074)"
  UNIT_ANNOTATION: "nM"
  IC50: 15.9
- COMPOUND: "CC[C@H](C)[C@@H]1C(=O)O[C@H]1C(=O)N[C@H](C(=O)N[C@H](C(=O)OCc1ccccc1)C(C)(C)C)C(C)(C)C [Compound 10g]"
  MEASURED_TARGET: "chymotrypsin-like activity of the 26S proteasome (Homo sapiens, UniProt P28074)"
  UNIT_ANNOTATION: "nM"
  IC50: 21.4
- COMPOUND: "CC[C@H](C)[C@@H]1C(=O)O[C@H]1C(=O)N[C@H](C(=O)N[C@@H](Cc1ccccc1)C(=O)OCc1ccccc1)C(C)C [Compound 10c]"
  MEASURED_TARGET: "chymotrypsin-like activity of the 26S proteasome (Homo sapiens, UniProt P28074)"
  UNIT_ANNOTATION: "nM"
  IC50: 5.4
- COMPOUND: "CC[C@H](C)[C@@H]1C(=O)O[C@H]1C(=O)N[C@H](C(=O)N[C@H](C(=O)OCc1ccccc1)C(C)C)C(C)(C)C [Compound 10e]"
  MEASURED_TARGET: "chymotrypsin-like activity of the 26S proteasome (Homo sapiens, UniProt P28074)"
  UNIT_ANNOTATION: "nM"
  IC50: 22.9
- COMPOUND: "CC[C@H](C)[C@@H]1C(=O)O[C@H]1C(=O)N[C@@H](Cc1ccccc1)C(=O)N[C@H](C(=O)OCc1ccccc1)C(C)C [Compound 10b]"
  MEASURED_TARGET: "chymotrypsin-like activity of the 26S proteasome (Homo sapiens, UniProt P28074)"
  UNIT_ANNOTATION: "nM"
  IC50: 7.7
- COMPOUND: "CC[C@H](C)[C@@H]1C(=O)O[C@H]1C(=O)N[C@H](C(=O)N[C@@H](CC(C)C)C(=O)OCc1ccccc1)C(C)C [Compound 10i]"
  MEASURED_TARGET: "chymotrypsin-like activity of the 26S proteasome (Homo sapiens, UniProt P28074)"
  UNIT_ANNOTATION: "nM"
  IC50: 7.8
- COMPOUND: "CC[C@H](C)[C@@H]1C(=O)O[C@H]1C(=O)N[C@@H](CC(C)C)C(=O)N[C@H](C(=O)OCc1ccccc1)C(C)C [Compound 10h]"
  MEASURED_TARGET: "chymotrypsin-like activity of the 26S proteasome (Homo sapiens, UniProt P28074)"
  UNIT_ANNOTATION: "nM"
  IC50: 4.7
- COMPOUND: "CC[C@H](C)[C@@H]1C(=O)O[C@H]1C(=O)N[C@@H](COCc1ccccc1)C(=O)N[C@H](C(=O)OCc1ccccc1)C(C)C [Compound 10j]"
  MEASURED_TARGET: "chymotrypsin-like activity of the 26S proteasome (Homo sapiens, UniProt P28074)"
  UNIT_ANNOTATION: "nM"
  IC50: 6.9

Query: Param item = CC[C@H](C)[C@@H]1C(=O)O[C@H]1C(=O)NCC(=O)N[C@H](C(=O)OCc1ccccc1)C(C)C [Compound 10a] ; retrieve measured IC50.
Result: 3.8

Query: Param item = CC[C@H](C)[C@@H]1C(=O)O[C@H]1C(=O)N[C@@H](Cc1ccccc1)C(=O)N[C@@H](Cc1ccccc1)C(=O)OCc1ccccc1 [Compound 10d] ; retrieve measured IC50.
Result: 12.6
